molecular target: AxCT mask27 EGFR EH104 L043 version 1
assay_endpoint: Percent cleavage

Exercise: Tell us which Percent cleavage value is on record for MMP-7 (protein) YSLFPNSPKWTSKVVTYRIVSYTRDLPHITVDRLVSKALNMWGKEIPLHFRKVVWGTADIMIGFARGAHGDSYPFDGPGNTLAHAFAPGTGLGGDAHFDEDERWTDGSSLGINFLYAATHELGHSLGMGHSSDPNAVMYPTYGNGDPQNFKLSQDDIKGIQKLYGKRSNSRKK
Solution: 0%

Exercise: Tell us which Percent cleavage value is on record for MMP-1 (protein) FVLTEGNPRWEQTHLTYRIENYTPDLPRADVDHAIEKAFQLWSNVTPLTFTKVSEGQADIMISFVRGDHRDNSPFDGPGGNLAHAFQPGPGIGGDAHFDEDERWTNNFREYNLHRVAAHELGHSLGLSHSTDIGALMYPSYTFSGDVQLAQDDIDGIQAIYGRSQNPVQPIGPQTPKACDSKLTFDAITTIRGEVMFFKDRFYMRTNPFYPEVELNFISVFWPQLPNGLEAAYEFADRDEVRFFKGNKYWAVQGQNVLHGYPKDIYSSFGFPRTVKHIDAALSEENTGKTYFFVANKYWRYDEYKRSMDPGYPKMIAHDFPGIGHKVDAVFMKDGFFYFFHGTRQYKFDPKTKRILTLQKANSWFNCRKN
Solution: 0%
